Biological target: T1, Recombinant human PDGF-BB (human, UniProt P01127 82-190)
T1 construct: For SPR it was chemically biotinylated on primary amines and captured on neutravidin; also called PDGF-BB (human); Reliatech 200-055
T1 sequence (P01127 82-190 limits assumed): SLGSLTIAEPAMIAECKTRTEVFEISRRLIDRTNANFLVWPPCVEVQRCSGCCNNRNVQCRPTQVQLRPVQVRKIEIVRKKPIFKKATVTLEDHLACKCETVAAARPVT
Experiment: receptor competition ELISA: DARPin preincubated with PDGF-BB, free PDGF-BB captured on coated PDGFRbeta/Fc; mean IC50
Property label: pIC50
In textbook form, pIC50 equals minus log to base ten of the concentration in mol/L.

Here is how some binders turned out for pIC50.
DARPin #49 (designed binder) MRGSHHHHHHGSDLGKKLLEAARAGQDDEVRILMANGADVNAQDLNGQTPLHLAADIGHLEIVEVLLKHGADVNAQDYAGSTPLRLAAWAGHLEIVEVLLKNGADVNANDYFGYTPLHLAAYFGHLEIVDVLLKHGADVNAQDKFGKTAFDISIDNGNEDLAEILQKLN :: 10.18
DARPin #30 (designed binder) MRGSHHHHHHGSDLGKKLLEAARAGQDDEVRELLKAGADVNAKDEEGTTPLHYAAVYGHLEIVEVLLKAGADVNAQDIYGATPADLAALVGHEDIAEVLQKLN :: 9.31
DARPin #38 (designed binder) MRGSHHHHHHGSDLGDKLLWAAKHGQDDEVRILLAAGADVNAKDDEGSTPLHYAAVWGHLETVEVLLKAGADVNAQDIWGATPADLAALLGHEDIAEVLQKLN :: 10.07

Query: Given DARPin #46 (designed binder) MRGSHHHHHHGSDLGKKLLEAARAGQDDEVRILMANGADVNAKDKSGHTPLHLAAYSGHLEIVEVLLKAGADVNAKDQEGTTPLHFAASVGHLEIVEVLLKAGADVNAQDHYGATPADLAALIGHEDIAEVLQKLN , state its recorded pIC50.
Reply: 9.82
